Read-out: Cellular tumor antigen p53 (Homo sapiens) (UniProt P04637)
Sequence (P04637 whole entry, looked up): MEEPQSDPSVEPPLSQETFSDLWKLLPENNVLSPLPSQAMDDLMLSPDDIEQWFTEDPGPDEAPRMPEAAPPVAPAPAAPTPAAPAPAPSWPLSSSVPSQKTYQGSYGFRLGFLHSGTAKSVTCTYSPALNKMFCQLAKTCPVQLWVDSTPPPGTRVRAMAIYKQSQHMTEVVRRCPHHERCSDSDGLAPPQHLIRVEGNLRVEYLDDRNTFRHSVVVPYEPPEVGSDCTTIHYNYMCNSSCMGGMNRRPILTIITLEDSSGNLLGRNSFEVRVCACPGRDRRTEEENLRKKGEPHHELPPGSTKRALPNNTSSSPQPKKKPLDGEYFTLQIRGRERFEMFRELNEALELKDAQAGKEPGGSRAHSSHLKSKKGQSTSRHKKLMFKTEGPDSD
Experiment: LTEA_HepaRG_TP53: Life Technologies and Expression Analysis (LTEA) Assay for Tumor Protein P53 (TP53) using HepaRG (AID 2283537)
Conditions: mRNA level, 48 h; actives raise or lower the signal
The source made the active and inactive calls. The calls were made as follows: active = hit-call score of the fitted dose curve at least 0.9, where 1 is the maximum; inactive = score below 0.9.
measuredAttribute: AC50

CC(C)(C)c1cc(/C=C2\SC(N)=NC2=O)cc(C(C)(C)C)c1O: inactive
CCN(Cc1cccnc1)C(=O)c1cccc(Cl)c1[C@]1(C)C(=O)N(Cc2ccc(OC)cc2OC)c2ccc(Cl)cc21: 11.6 µM (active)
Clc1cc(Cl)c2c(c1)N=C1CCCCCN1C2: inactive
O=C1c2ccccc2C(=O)N1CCc1noc(-c2ccc(CN3CCCCCC3)s2)n1: inactive
CCCCCCCC[Si](OCC)(OCC)OCC: inactive
CC1(C)NC(=O)N(c2ccc([N+](=O)[O-])c(C(F)(F)F)c2)C1=O: 78.2 µM (active)
O=C1CCC(C2CCCCC2)CC1: inactive
O=CCCCC=O: inactive

For `O=C(O)c1ccccc1-n1cc(C(=O)O)c(=O)c2cc(Nc3c(F)cc(F)cc3Cl)c(Cl)cc21` the molecule record lists AC50 as inactive

For CN1C(=O)N(c2ccccc2Br)Cc2cnc(Nc3ccc4c(c3)OCC(CO)O4)nc21 (stereo unspecified) the molecule record lists AC50 as inactive

For `Cc1c2ccccc2c(C)c2c1ccc1ccccc12` the molecule record lists AC50 as 54.1 µM (active)

###

Read-out: Matrix Metallopeptidase 1 (MMP1), MMP1 (gene 4312)
Assay: BSK_hDFCGF_MMP1: BioMAP Diversity Plus: hDFCGF Assay for Matrix Metallopeptidase 1 (MMP1) Biomarker Activity (AID 2283064)
Settings: primary human foreskin fibroblasts; actives raise or lower the signal
Active and inactive are the calls of the source. How the source made its calls: active means hit-call score of the fitted dose curve at least 0.9, where 1 is the maximum; inactive means score below 0.9.
Please state which outcome applies, choosing from Yes for active, No for inactive

Observe how each entry below is paired with its result.
C[C@]12CC[C@@H]3c4ccc(O)cc4CC[C@H]3[C@@H]1CCC2=O: No
Cc1cc(F)ccc1-c1cc(N2CC[C@@H](O)[C@H]2CO)ncc1N(C)C(=O)C(C)(C)c1cc(C(F)(F)F)cc(C(F)(F)F)c1: Yes
Cc1occc1C(=O)Nc1ccc(C(=O)N2CCC(F)(F)/C(=C\C(=O)N3CCC(N4CCCCC4)CC3)c3ccccc32)cc1: No
O=C1O[C@H]([C@@H](O)CO)C(O)=C1O: No
Oc1ccccc1: No

Test call for this molecule, please: CC(O)CC(C)(C)O (stereo unspecified)
No

###

Read-out: Interleukin-8 (IL8), CXCL8 (gene 3576)
Test: BSK_CASM3C_IL8: BioMAP Diversity Plus: CASM3C Assay for Interleukin-8 (IL8) Biomarker Activity (AID 2283042);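 also: IL-8 protein level quantified by ELISA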
Conditions: primary human coronary artery smooth muscle cells; actives raise or lower the signal
Activity calls are given as the source filed them. How the source made its calls: active means hit-call score of the fitted dose curve at least 0.9, where 1 is the maximum; inactive means score below 0.9.
Please state which outcome applies, choosing from active, inactive

O=c1ccc2ccccc2o1: inactive
O=C(Nc1ccc(Cl)cc1)Nc1ccc(Cl)c(Cl)c1: inactive
CO[C@H]1/C=C/O[C@@]2(C)Oc3c(C)c(O)c4c(O)c(c(/C=N/N5CCN(C)CC5)c(O)c4c3C2=O)NC(=O)/C(C)=C\C=C\[C@H](C)[C@H](O)[C@@H](C)[C@@H](O)[C@@H](C)[C@H](OC(C)=O)[C@@H]1C: inactive

Test call for this compound, please: `Cc1occc1C(=O)Nc1ccc(C(=O)N2CCC(F)(F)/C(=C\C(=O)N3CCC(N4CCCCC4)CC3)c3ccccc32)cc1`
inactive

Test call for this compound, please: `Clc1cc(Cl)c2c(c1)N=C1CCCCCN1C2`
inactive

Test call for this compound, please: `Cc1ccc(C(C)C)cc1`
inactive

Test call for this compound, please: `CCCCCCCCCC(=O)O`
inactive

Test call for this compound, please: `O=C1CCC(C2CCCCC2)CC1`
inactive

Test call for this compound, please: `Cc1cc(F)ccc1-c1cc(N2CC[C@@H](O)[C@H]2CO)ncc1N(C)C(=O)C(C)(C)c1cc(C(F)(F)F)cc(C(F)(F)F)c1`
active

Test call for this compound, please: `CC(C)(O)c1ccc(CNC(=O)c2cccnc2Oc2ccc3nonc3c2)cc1`
inactive

Test call for this compound, please: `O=CCCCC=O`
inactive

Test call for this compound, please: `O=C(O)c1ccccc1-n1cc(C(=O)O)c(=O)c2cc(Nc3c(F)cc(F)cc3Cl)c(Cl)cc21`
inactive

Test call for this compound, please: `Cc1cccc2ccccc12`
inactive

Test call for this compound, please: `CCCCCCCCOc1ccc(C(=O)c2ccccc2)c(O)c1`
inactive

Test call for this compound, please: `CCCOC(=O)c1cc(O)c(O)c(O)c1`
inactive

Test call for this compound, please: `CCCCCCCC[Si](OCC)(OCC)OCC`
inactive

Test call for this compound, please: `O=C1O[C@H]([C@@H](O)CO)C(O)=C1O`
inactive

Test call for this compound, please: `COc1ccc2cc(S(=O)(=O)N[C@H](CC(=O)N[C@H](Cc3ccc(CN4[C@H](C)CCC[C@@H]4C)cc3)C(=O)N(C)C(C)C)c3ccc4c(c3)OCO4)ccc2c1`
inactive

Test call for this compound, please: `C[C@]12CC[C@@H]3c4ccc(O)cc4CC[C@H]3[C@@H]1CC[C@H]2O`
inactive

Test call for this compound, please: `CC[C@H](NC(=O)c1cc(F)ccc1NS(=O)(=O)c1cccc2cccnc12)c1ccccc1`
inactive

Test call for this compound, please: `CC1=CC(=O)/C(=C(/C)O)C(=O)O1`
inactive

###

Read-out: Apoptosis regulator Bcl-2 (Homo sapiens) (UniProt P10415)
Sequence (P10415 whole entry, looked up): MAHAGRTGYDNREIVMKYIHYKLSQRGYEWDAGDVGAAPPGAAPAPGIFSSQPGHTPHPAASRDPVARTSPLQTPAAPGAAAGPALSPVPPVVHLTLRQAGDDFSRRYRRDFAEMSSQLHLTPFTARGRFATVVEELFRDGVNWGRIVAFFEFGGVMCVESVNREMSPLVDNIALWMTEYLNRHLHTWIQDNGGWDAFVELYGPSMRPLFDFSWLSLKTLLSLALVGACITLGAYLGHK
Assay: LTEA_HepaRG_BCL2: Life Technologies and Expression Analysis (LTEA) Assay for Bcl-2 gene using HepaRG (AID 2283475);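 also: BCL2 transcript by TaqMan qRT-PCR normalised to ACTB GAPDH and POLR2A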
Details: mRNA level, 48 h; actives raise or lower the signal
The source made the active and inactive calls. How the source made its calls: active means hit-call score of the fitted dose curve at least 0.9, where 1 is the maximum; inactive means score below 0.9.
Please state which outcome applies, choosing from active, inactive

Test call for this molecule, please: `Oc1ccccc1`
inactive

Test call for this molecule, please: `CC(C)(c1cc(Br)c(O)c(Br)c1)c1cc(Br)c(O)c(Br)c1`
inactive

Test call for this molecule, please: `Cc1cc(F)ccc1-c1cc(N2CC[C@@H](O)[C@H]2CO)ncc1N(C)C(=O)C(C)(C)c1cc(C(F)(F)F)cc(C(F)(F)F)c1`
active

Test call for this molecule, please: CN1C(=O)N(c2ccccc2Br)Cc2cnc(Nc3ccc4c(c3)OCC(CO)O4)nc21 (stereo unspecified)
active

Test call for this molecule, please: `CC(=O)N1CCN(c2ccc(OC[C@H]3CO[C@](Cn4ccnc4)(c4ccc(Cl)cc4Cl)O3)cc2)CC1`
active

Test call for this molecule, please: `CN1C(=O)CC[C@H]1c1cccnc1`
inactive

Test call for this molecule, please: `O=CCCCC=O`
inactive

Test call for this molecule, please: `CN(C[C@@H](CC[N+]12CCC(C3CCCCC3)(CC1)CC2)c1ccc(Cl)c(Cl)c1)C(=O)c1cc(C(F)(F)F)cc(C(F)(F)F)c1`
inactive

Test call for this molecule, please: `Clc1ccccc1C(c1ccccc1)(c1ccccc1)n1ccnc1`
active

Test call for this molecule, please: `c1ccc2ccccc2c1`
inactive

Test call for this molecule, please: `CC1(C)NC(=O)N(c2ccc([N+](=O)[O-])c(C(F)(F)F)c2)C1=O`
active

Test call for this molecule, please: `CCN(Cc1cccc(S(=O)(=O)O)c1)c1ccc(C(=C2C=CC(=[N+](CC)Cc3cccc(S(=O)(=O)O)c3)C=C2)c2ccccc2S(=O)(=O)[O-])cc1`
inactive

Test call for this molecule, please: `COc1ccc2cc(S(=O)(=O)N[C@H](CC(=O)N[C@H](Cc3ccc(CN4[C@H](C)CCC[C@@H]4C)cc3)C(=O)N(C)C(C)C)c3ccc4c(c3)OCO4)ccc2c1`
inactive

Test call for this molecule, please: `O=C1O[C@H]([C@@H](O)CO)C(O)=C1O`
inactive

Test call for this molecule, please: `Cc1ncc(CO)c(CO)c1O`
inactive

Test call for this molecule, please: `Clc1cc(Cl)c2c(c1)N=C1CCCCCN1C2`
inactive

Test call for this molecule, please: `CC(C)(O)c1ccc(CNC(=O)c2cccnc2Oc2ccc3nonc3c2)cc1`
inactive

Test call for this molecule, please: `CCCCCCCCCC(=O)O`
inactive

###

Test: CCTE_Shafer_MEA_acute_AB: CCTE's Alamar Blue Assay for Cytotoxicity in the Neural Acute Assay, Shafer Lab (AID 2284069);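 also: active compounds lower the viability signal compared with DMSO wells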
Inconclusive results are not listed. Activity calls are given as the source filed them. How the source made its calls: active means hit-call score of the fitted dose curve at least 0.9, where 1 is the maximum; inconclusive means response in the unintended direction; inactive means score below 0.9.
measuredAttribute: outcome

Solved entries:
NCc1cccc(C2CCN(C(=O)c3ccc(C#Cc4ccccc4F)o3)CC2)c1: inactive
CN(C)C(=O)C1(N2CCCCC2)CCN(CC[C@@]2(c3ccc(Cl)c(Cl)c3)CN(C(=O)c3ccccc3)CCO2)CC1: inactive
Cc1c2ccccc2c(C)c2c1ccc1ccccc12: inactive
CC1=CC(=O)/C(=C(/C)O)C(=O)O1: inactive
O=C1O[C@H]([C@@H](O)CO)C(O)=C1O: inactive

For `CCN(CC)C(=O)c1cc(S(=O)(=O)Cc2ccccc2)c(N2CCC(c3ccccc3)CC2)cc1N(CC)CCN(C)C` the compound record lists outcome as inactive
